system: NCI-H838; experiment: relative viability (nuclei count vs DMSO), 5 days (fraction); higher = more cells survive; conditions: first compound 0.5 µM
Metric: relative viability
Just the number, please, no unit attached.

# count of solved cases: 3
Nc1ccn([C@@H]2O[C@H](CO)[C@@H](O)[C@@H]2O)c(=O)n1 [Cytarabine] + NC(=O)Nc1cc(-c2cccc(F)c2)sc1C(=O)N[C@H]1CCCNC1 [AZD7762] (partner 0.2 µM) = 0.631
Nc1ccn([C@@H]2O[C@H](CO)[C@@H](O)[C@@H]2O)c(=O)n1 [Cytarabine] + COc1cc2c(Oc3ccc(NC(=O)C4(C(=O)Nc5ccc(F)cc5)CC4)cc3F)ccnc2cc1OCCCN1CCOCC1 [Foretinib] (partner 0.25 µM) = 0.301
Nc1ccn([C@@H]2O[C@H](CO)[C@@H](O)[C@@H]2O)c(=O)n1 [Cytarabine] + Cc1cc(Nc2cc(N3CCN(C)CC3)nc(Sc3ccc(NC(=O)C4CC4)cc3)n2)n[nH]1 [Tozasertib] (partner 0.1 µM) = 0.161

Query: Requested field: relative viability. Item: Nc1ccn([C@@H]2O[C@H](CO)[C@@H](O)[C@@H]2O)c(=O)n1 [Cytarabine] + CS(=O)(=O)CCNCc1ccc(-c2ccc3ncnc(Nc4ccc(OCc5cccc(F)c5)c(Cl)c4)c3c2)o1 [Lapatinib] (partner 2 µM)
Result: 0.213

====

test system: NCI-H1650; experiment: relative viability (nuclei count vs DMSO), 5 days (fraction); higher = more cells survive; details: first compound 0.1581 µM
Metric: relative viability
Just the number, please, no unit attached.

COc1cc2nccc(Oc3ccc(NC(=O)Nc4cc(C)on4)c(Cl)c3)c2cc1OC [Tivozanib] + Cc1nc(Nc2ncc(C(=O)Nc3c(C)cccc3Cl)s2)cc(N2CCN(CCO)CC2)n1 [Dasatinib] (partner 0.075 µM) = 0.27

Query: Requested field: relative viability. Item: COc1cc2nccc(Oc3ccc(NC(=O)Nc4cc(C)on4)c(Cl)c3)c2cc1OC [Tivozanib] + Nc1nc2[nH]cc(CCc3ccc(C(=O)N[C@@H](CCC(=O)O)C(=O)O)cc3)c2c(=O)[nH]1 [Pemetrexed] (partner 0.2 µM)
Result: 0.309

====

test system: NCI-H3122; assay: relative viability (nuclei count vs DMSO), 5 days (fraction); higher = more cells survive; conditions: first compound 0.01581 µM
Metric: relative viability
Just the number, please, no unit attached.

# count of solved cases: 5
Nc1ccn([C@@H]2O[C@H](CO)[C@@H](O)[C@@H]2O)c(=O)n1 [Cytarabine] + N=C(N)NC(=N)NCCc1ccccc1 [Phenformin] (partner 250 µM) = 0.323
Nc1ccn([C@@H]2O[C@H](CO)[C@@H](O)[C@@H]2O)c(=O)n1 [Cytarabine] + COc1cc2c(Oc3ccc(NC(=O)C4(C(=O)Nc5ccc(F)cc5)CC4)cc3F)ccnc2cc1OCCCN1CCOCC1 [Foretinib] (partner 0.25 µM) = 0.805
COc1cc2nccc(Oc3ccc(NC(=O)Nc4cc(C)on4)c(Cl)c3)c2cc1OC [Tivozanib] + CC(C)C[C@H](NC(=O)[C@H](Cc1ccccc1)NC(=O)c1cnccn1)B(O)O [Bortezomib] (partner 0.002 µM) = 1.02
Nc1ccn([C@@H]2O[C@H](CO)[C@@H](O)[C@@H]2O)c(=O)n1 [Cytarabine] + Nc1ncn([C@H]2C[C@H](O)[C@@H](CO)O2)c(=O)n1 [Decitabine] (partner 2 µM) = 0.383
COc1cc2nccc(Oc3ccc(NC(=O)Nc4cc(C)on4)c(Cl)c3)c2cc1OC [Tivozanib] + C[C@@H](Oc1cc(-c2cnn(C3CCNCC3)c2)cnc1N)c1c(Cl)ccc(F)c1Cl [Crizotinib] (partner 1 µM) = 0.266

Query: Requested field: relative viability. Item: COc1cc2nccc(Oc3ccc(NC(=O)Nc4cc(C)on4)c(Cl)c3)c2cc1OC [Tivozanib] + Cc1nc(NC(=O)N2CCC[C@H]2C(N)=O)sc1-c1ccnc(C(C)(C)C(F)(F)F)c1 [Alpelisib] (partner 2 µM)
Result: 0.792

Query: Requested field: relative viability. Item: Nc1ccn([C@@H]2O[C@H](CO)[C@@H](O)[C@@H]2O)c(=O)n1 [Cytarabine] + CC1(C)CCC(c2ccc(Cl)cc2)=C(CN2CCN(c3ccc(C(=O)NS(=O)(=O)c4ccc(N[C@H](CCN5CCOCC5)CSc5ccccc5)c(S(=O)(=O)C(F)(F)F)c4)cc3)CC2)C1 [Navitoclax] (partner 0.5 µM)
Result: 0.877

Query: Requested field: relative viability. Item: Nc1ccn([C@@H]2O[C@H](CO)[C@@H](O)[C@@H]2O)c(=O)n1 [Cytarabine] + CS(=O)(=O)N1CCN(Cc2cc3nc(-c4cccc5[nH]ncc45)nc(N4CCOCC4)c3s2)CC1 [Pictilisib] (partner 1 µM)
Result: 0.494

Query: Requested field: relative viability. Item: COc1cc2nccc(Oc3ccc(NC(=O)Nc4cc(C)on4)c(Cl)c3)c2cc1OC [Tivozanib] + Nc1nc2[nH]cc(CCc3ccc(C(=O)N[C@@H](CCC(=O)O)C(=O)O)cc3)c2c(=O)[nH]1 [Pemetrexed] (partner 0.2 µM)
Result: 0.222

Query: Requested field: relative viability. Item: Nc1ccn([C@@H]2O[C@H](CO)[C@@H](O)[C@@H]2O)c(=O)n1 [Cytarabine] + C[C@@H](Oc1cc(-c2cnn(C3CCNCC3)c2)cnc1N)c1c(Cl)ccc(F)c1Cl [Crizotinib] (partner 1 µM)
Result: 0.239

Query: Requested field: relative viability. Item: COc1cc2nccc(Oc3ccc(NC(=O)Nc4cc(C)on4)c(Cl)c3)c2cc1OC [Tivozanib] + O=C(CCCCCCC(=O)Nc1ccccc1)NO [Vorinostat] (partner 1 µM)
Result: 1.12

====

tested on: NCI-H2126; assay: relative viability (nuclei count vs DMSO), 5 days (fraction); higher = more cells survive; conditions: first compound 0.1581 µM
Metric: relative viability
Just the number, please, no unit attached.

COc1cc2nccc(Oc3ccc(NC(=O)Nc4cc(C)on4)c(Cl)c3)c2cc1OC [Tivozanib] + Cc1cc(Nc2cc(N3CCN(C)CC3)nc(Sc3ccc(NC(=O)C4CC4)cc3)n2)n[nH]1 [Tozasertib] (partner 0.1 µM) = 0.667
Nc1ccn([C@@H]2O[C@H](CO)[C@@H](O)[C@@H]2O)c(=O)n1 [Cytarabine] + N=C(N)NC(=N)NCCc1ccccc1 [Phenformin] (partner 250 µM) = 0.277

Query: Requested field: relative viability. Item: COc1cc2nccc(Oc3ccc(NC(=O)Nc4cc(C)on4)c(Cl)c3)c2cc1OC [Tivozanib] + CC(=O)Nc1cccc(-n2c(=O)n(C3CC3)c(=O)c3c(Nc4ccc(I)cc4F)n(C)c(=O)c(C)c32)c1 [Trametinib] (partner 0.02 µM)
Result: 0.444

Query: Requested field: relative viability. Item: COc1cc2nccc(Oc3ccc(NC(=O)Nc4cc(C)on4)c(Cl)c3)c2cc1OC [Tivozanib] + CC(=O)c1c(C)c2cnc(Nc3ccc(N4CCNCC4)cn3)nc2n(C2CCCC2)c1=O [Palbociclib] (partner 0.5 µM)
Result: 0.337

Query: Requested field: relative viability. Item: Nc1ccn([C@@H]2O[C@H](CO)[C@@H](O)[C@@H]2O)c(=O)n1 [Cytarabine] + C[C@@H](Oc1cc(-c2cnn(C3CCNCC3)c2)cnc1N)c1c(Cl)ccc(F)c1Cl [Crizotinib] (partner 1 µM)
Result: 0.78

====

system: NCI-H1623; test: relative viability (nuclei count vs DMSO), 5 days (fraction); higher = more cells survive; conditions: first compound 0.05 µM
Metric: relative viability
Just the number, please, no unit attached.

# count of solved cases: 3
Nc1ccn([C@@H]2O[C@H](CO)[C@@H](O)[C@@H]2O)c(=O)n1 [Cytarabine] + Cc1cc(Nc2cc(N3CCN(C)CC3)nc(Sc3ccc(NC(=O)C4CC4)cc3)n2)n[nH]1 [Tozasertib] (partner 0.1 µM) = 0.284
Nc1ccn([C@@H]2O[C@H](CO)[C@@H](O)[C@@H]2O)c(=O)n1 [Cytarabine] + Cc1nc(Nc2ncc(C(=O)Nc3c(C)cccc3Cl)s2)cc(N2CCN(CCO)CC2)n1 [Dasatinib] (partner 0.075 µM) = 0.286
Nc1ccn([C@@H]2O[C@H](CO)[C@@H](O)[C@@H]2O)c(=O)n1 [Cytarabine] + CCNC(=O)c1noc(-c2cc(C(C)C)c(O)cc2O)c1-c1ccc(CN2CCOCC2)cc1 [Luminespib] (partner 0.01 µM) = 0.316

Consider the record given below.
Query: Kindly state the measured relative viability obtained for COc1cc2nccc(Oc3ccc(NC(=O)Nc4cc(C)on4)c(Cl)c3)c2cc1OC [Tivozanib] + CCNC(=O)c1noc(-c2cc(C(C)C)c(O)cc2O)c1-c1ccc(CN2CCOCC2)cc1 [Luminespib] (partner 0.01 µM) with NCI-H1623.
Result: 0.602

====

system: NCI-H1793; assay: relative viability (nuclei count vs DMSO), 5 days (fraction); higher = more cells survive; conditions: first compound 4 µM
Recorded relative viability for the following compounds
Just the number, please, no unit attached.

# count of solved cases: 4
Cc1sc2c(c1C)C(c1ccc(Cl)cc1)=N[C@@H](CC(=O)OC(C)(C)C)c1nnc(C)n1-2 [JQ1] + Nc1ncn([C@H]2C[C@H](O)[C@@H](CO)O2)c(=O)n1 [Decitabine] (partner 2 µM) = 0.484
Cc1sc2c(c1C)C(c1ccc(Cl)cc1)=N[C@@H](CC(=O)OC(C)(C)C)c1nnc(C)n1-2 [JQ1] + Nc1nc2[nH]cc(CCc3ccc(C(=O)N[C@@H](CCC(=O)O)C(=O)O)cc3)c2c(=O)[nH]1 [Pemetrexed] (partner 0.2 µM) = 0.78
Cc1sc2c(c1C)C(c1ccc(Cl)cc1)=N[C@@H](CC(=O)OC(C)(C)C)c1nnc(C)n1-2 [JQ1] + Cc1cc(Nc2cc(N3CCN(C)CC3)nc(Sc3ccc(NC(=O)C4CC4)cc3)n2)n[nH]1 [Tozasertib] (partner 0.1 µM) = 0.226
Cc1sc2c(c1C)C(c1ccc(Cl)cc1)=N[C@@H](CC(=O)OC(C)(C)C)c1nnc(C)n1-2 [JQ1] + CS(=O)(=O)CCNCc1ccc(-c2ccc3ncnc(Nc4ccc(OCc5cccc(F)c5)c(Cl)c4)c3c2)o1 [Lapatinib] (partner 2 µM) = 0.576

Consider the record given below.
Query: Kindly state the measured relative viability obtained for Cc1sc2c(c1C)C(c1ccc(Cl)cc1)=N[C@@H](CC(=O)OC(C)(C)C)c1nnc(C)n1-2 [JQ1] + O=C(CCCCCCC(=O)Nc1ccccc1)NO [Vorinostat] (partner 1 µM) with NCI-H1793.
Result: 0.508
